Test system: E. coli BW25113 ΔtolC growth inhibition, OD615
Assay: growth inhibitors of E. coli tolC mutant, dose response, strain BW25113 ΔtolC::kan (AID 617);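 further: growth read after 20 h at 37 °C with compound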
endpoint-label: IC50

// known answers, use as guide
[
  {
    "compound": "Oc1cccc(Nc2nc(NCC3CCCO3)c3ccccc3n2)c1 (configuration not stated)",
    "result": "4.68 µM"
  },
  {
    "compound": "CC1=C(C(=O)OC2CCCCCC2)C(c2ccc(C)o2)C2=C(CCCC2=O)N1 (configuration not stated)",
    "result": "6.35 µM"
  },
  {
    "compound": "Cn1c(=O)n(CCc2ccccc2)c(=O)c2c1nc1n2CCCN1CCc1ccccc1",
    "result": "10.5 µM"
  },
  {
    "compound": "Cc1cccc(N2CCN(C(=O)c3ccc(NS(=O)(=O)c4c(C)noc4C)cc3)CC2)c1C",
    "result": "16.2 µM"
  }
]

For each of the compounds below, note its IC50.
1. Cc1ccccc1Cn1nc(C)c(NC(=O)c2noc3c2CCc2ccccc2-3)c1C
2. O=C(Nc1ccccc1N1CCCCC1)c1cccs1
3. COC(=O)c1c(NC(=O)c2ccc(C)o2)sc2c1CCCCC2

Result:
12.1 µM
12.8 µM
28.4 µM

====

Tested on: E. coli BW25113 ΔtolC growth inhibition, OD615
Assay: growth inhibitors of E. coli tolC mutant, dose response, strain BW25113 ΔtolC::kan (AID 617);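 further: growth read after 20 h at 37 °C with compound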
pIC50: −log10 of the molar value.
pIC50 vs 5: at or above is Satisfied, below is Not satisfied.

[
  {
    "compound": "Cc1nnc(SC(=O)N2c3ccccc3Sc3ccccc32)s1",
    "answer-label": "Not satisfied"
  }
]

Q: Record Cc1c(C(=O)OCCOc2ccccc2)[nH]c2c1C(=O)CCC2 ; criterion: pIC50 no lower than 5. Met?
Result: Satisfied

Q: Check if pIC50 >= 5 (inclusive). Item: CC(C)c1ccc(Nc2nc(NCc3ccco3)nc(N3CCOCC3)n2)cc1
Result: Not satisfied

Q: Check this compound for pIC50 at or above 5: O=S(=O)(N1CCCCC1)n1c(Cc2ccccc2)nc2ccccc21
Result: Satisfied

Q: Check if pIC50 >= 5 (inclusive). Item: COc1cccc2sc(Nc3nc(-c4ccccn4)cs3)nc12
Result: Satisfied

Q: Hello, I need to know if O=C(CCSc1nnc2scc(-c3ccccc3)n12)Nc1nc(-c2ccccc2)ns1 has measured pIC50 not below 5. Thanks!
Result: Not satisfied

Q: Dear colleague, could you confirm whether Fc1ccc(-n2c(Cc3ccccc3)nnc2SCc2nc(-c3cccs3)no2)cc1 has pIC50 at or above 5?
Result: Not satisfied

Q: Check if pIC50 >= 5 (inclusive). Item: CCn1cc(C(=O)O)c(=O)c2cnc(N3CCN(C(=O)Nc4ccccc4)CC3)nc21
Result: Satisfied

Q: Say whether COc1ccc2nc(NC(=O)CSc3nnnn3C3CCCCC3)sc2c1 shows pIC50 of 5 or more.
Result: Not satisfied

Q: Is reported pIC50 greater than or equal to 5 here: CCOC(=O)c1c(C)n(C)c2ccc(OCC(O)Cn3nc(C)c(Br)c3C)cc12 (stereo unspecified)
Result: Satisfied

====

Tested on: E. coli BW25113 ΔtolC growth inhibition, OD615
Test: growth inhibitors of E. coli tolC mutant, dose response, strain BW25113 ΔtolC::kan (AID 617);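 further: growth read after 20 h at 37 °C with compound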
endpoint-label: pIC50
Numbers only, as −log10 of the molar value.

Check out these entries, answers already filled in.
[
  {
    "compound": "c1ccc(-c2ccccc2-c2nc(-c3cccnc3)no2)cc1",
    "pIC50": 4.86
  },
  {
    "compound": "Cn1c(CSc2nnc(SCc3ccccc3)s2)nc2ccccc21",
    "pIC50": 4.65
  },
  {
    "compound": "CC(C)(C)C(=O)Cn1c(=N)n(Cc2ccccc2)c2ccccc21",
    "pIC50": 4.76
  }
]

Field: pIC50. Fill in for each record below.
1. CCOC(=O)c1cc2oc(C)cc2n1CC(=O)OC1CCCCC1
2. O=C(Nc1ccc(Cl)cc1)N1CCC(c2nc(-c3cccs3)no2)CC1
3. CC1CCCCN1C(=O)CSc1nc(C2CC2)nc2c1cnn2-c1ccccc1 (stereo unspecified)
4. Cc1ccc2ccc(S(=O)(=O)n3nc(C)cc3C)cc2c1
5. COc1cccc(NC(=O)Nc2nnc(N3CCCCC3C)s2)c1 (stereo unspecified)
6. Cc1cc(SCC#N)n2nc(C)c(-c3ccccc3)c2n1

Result:
1. 4.75
2. 5.19
3. 4.91
4. 4.84
5. 5.07
6. 4.31

Each of the following entries comes with a recorded value; kindly state pIC50 for each.
1. CCn1c(=O)c2cc(C(=O)N3CCN(C(=O)c4ccco4)CC3)sc2c2ccccc21
2. COc1ccc(CCN2C(=O)c3[nH]nc(-c4ccccc4O)c3C2c2ccc(C)cc2)cc1OC (stereo unspecified)

Result:
[5.20, 4.86]

====

Test system: E. coli BW25113 ΔtolC growth inhibition, OD615
Experiment: growth inhibitors of E. coli tolC mutant, dose response, strain BW25113 ΔtolC::kan (AID 617);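 further: growth read after 20 h at 37 °C with compound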
Please respond with reported IC50 for every item in the list.

Examples with answers:
[
  {
    "compound": "CCOC(=O)C1C(=O)C=C(c2ccc(OC)cc2)CC1c1ccco1 (stereo not given)",
    "result": "11.6 µM"
  },
  {
    "compound": "CCCOc1ccc2oc(=O)c3c(c2c1)CCCN3C(=O)CN1CCc2ccccc2C1",
    "result": "14.1 µM"
  },
  {
    "compound": "CC(C)c1ccc(-c2noc(C3CCCN(C(=O)c4ccc(F)cc4F)C3)n2)cc1 (stereo not given)",
    "result": "17.9 µM"
  }
]

Hi there! I need IC50 for each item below, if you can.
1. CC(C)(C)n1nnnc1C(c1cccs1)N(Cc1ccccc1)Cc1cccnc1 (stereo not given)
2. CCN(C(=O)c1ccc(C(C)(C)C)cc1)c1nnc(Cn2nnc3ccccc32)s1
3. Clc1cccc(-c2nc3nc4ccccc4nc3n2Cc2ccco2)c1
4. CC(C)(C)NC(=O)C(c1ccco1)N(C(=O)Cn1nnc(-c2ccc(F)cc2)n1)c1cccc(F)c1 (stereo not given)
5. C=CCc1c(C)nc(SCc2nc3ccccc3c(=O)[nH]2)[nH]c1=O
6. Cc1cc(NC(=O)C2CCCCC2)nc2c1c(=O)oc1ccccc12
7. O=C(CSc1ncn(-c2ccccc2)n1)Nc1nc2c(s1)CCCC2

Result:
1. 8.37 µM
2. 47.5 µM
3. 15 µM
4. 20.9 µM
5. 6.54 µM
6. 11.5 µM
7. 16.9 µM

====

Assign pIC50 to each entry below.
System: E. coli BW25113 ΔtolC growth inhibition, OD615
Assay: growth inhibitors of E. coli tolC mutant, dose response, strain BW25113 ΔtolC::kan (AID 617);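 further: growth read after 20 h at 37 °C with compound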
Give bare numbers, as −log10 of the molar value.

For every record below, what is its pIC50?
1. COc1ccccc1N1CCN(C(=O)c2cc(-c3cccc(Cl)c3)on2)CC1
2. Cc1ccc(C(=O)N2CCN(c3cccc(Cl)c3)CC2)cc1C

Result:
4.89
4.98

# batch size: 2; output pIC50 per entry
1. CCn1c2ccccc2c2cc(C3C(C#N)=C(N)Oc4n[nH]c(COC)c43)ccc21 (stereo not given)
2. COC(=O)c1[nH]c2ccccc2c1NC(=O)CN1CCN(c2cccc(OC)c2)C(C)C1 (stereo not given)

Result:
[4.64, 4.73]

// each compound listed below needs its pIC50
1. O=C(CSc1nc2ccccc2o1)Nc1ccccc1N1CCCCCC1
2. COC(=O)c1cc(CSc2nc3ccc(C)cc3[nH]2)oc1C
3. O=C(Nc1cccc(Cl)c1)N(CCCN1CCOCC1)Cc1ccccc1F
4. Cc1cccc(-n2ncc3c(N4CC(C)CC(C)C4)ncnc32)c1 (stereo not given)
5. CSc1nc(N2CCOCC2)c2c3c(sc2n1)CCCC3
6. COc1cccc(-c2cc(C(=O)N3C(C)CCCC3C)no2)c1 (stereo not given)

Result:
4.93
4.86
5.14
4.91
4.92
4.48

Working through the 6 compounds below one at a time, give pIC50 for each.
1. CCC(Oc1ccccc1)C(=O)Nc1nnc(C(F)(F)F)s1 (stereo not given)
2. N#Cc1c(NC(=O)c2ccc(Cn3cc(Br)cn3)o2)sc2c1CCCCCC2
3. Cc1cccc(-c2cc3nc4c(c(N5CCOCC5)n3n2)CCCC4)c1
4. Cc1ccc(-c2csc(N(CC3CCCO3)C(=O)c3ccco3)n2)cc1 (stereo not given)
5. COC(=O)C1=C(N)Oc2cc(C)n(Cc3ccco3)c(=O)c2C1c1cccc(Cl)c1 (stereo not given)
6. Cc1sc(NC(=O)c2ccco2)c(CN2CCN(c3ccccn3)CC2)c1C

Result:
1: 5.04; 2: 4.94; 3: 4.80; 4: 4.68; 5: 4.58; 6: 5.02

Please state, for each entry, its recorded pIC50.
1. COC(=O)c1cc(C(=O)CSc2nc(C)cc(C)n2)ccc1O
2. Cc1ccc(-c2noc(CSc3nnnn3C3CCCCC3)n2)cc1
3. CCOC(=O)c1cc2sccc2n1Cc1ccc(C#N)cc1
4. CCCN(CCC)S(=O)(=O)c1ccc(C(=O)Nc2nnc(-c3cccc(OC)c3)o2)cc1
5. COC(=O)c1ccsc1NC(=O)CN1CCN(c2ccc(F)cc2)CC1

Result:
1: 5.37; 2: 4.89; 3: 4.95; 4: 6.59; 5: 4.73

List reported pIC50 for each of these compounds:
1. O=C(Nc1ccc2nc(-c3cccs3)[nH]c2c1)c1ccco1
2. CCCCSC1=C(C#N)C(c2ccccc2C)C(C(=O)OCC)C(=O)N1 (stereo not given)
3. COc1ccc(-n2c(COc3ccccc3)nnc2SCc2ccc(C#N)cc2)cc1
4. CCc1nnc(NC(=O)c2cccc(C(=O)Nc3nnc(CC)s3)n2)s1

Result:
1. 4.08
2. 4.94
3. 4.85
4. 5.67

For every item below, please supply its pIC50.
1. CC1Cc2ccccc2N1C(=O)Cn1c(=O)oc2cc(S(=O)(=O)NC3CCCC3)ccc21 (stereo not given)
2. c1ccc(-c2nc(N3CCCCCC3)c3ccccc3n2)nc1
3. COc1ccc(OCC(O)CNc2ccc(Br)cc2)cc1 (stereo not given)
4. O=C(CCC1CCCC1)c1c(O)c2ccccc2oc1=O
5. CCCn1c(CNc2ccc(Br)cc2)nc2ccccc21

Result:
[5.36, 5.77, 4.89, 6.02, 5.21]

List pIC50 for every entry below, keeping the order given.
1. CCN(C1CCCCC1)S(=O)(=O)c1ccc(OC)c(C)c1
2. CCCCCOC(=O)c1ccc(NC(=O)c2ccco2)cc1
3. O=C(c1ccc(COc2ccc3c(c2)CCC3)o1)N1CCN(c2ccccc2)CC1
4. Cc1ccccc1-c1nc(CS(=O)(=O)CC(=O)N2CCc3ccccc3C2)c(C)o1
5. CCC1CCCCN1S(=O)(=O)c1ccc2c(c1)CCN2C(=O)C1CCC1 (stereo not given)

Result:
[4.77, 5.19, 4.97, 4.50, 4.83]
